Target: full-length beta-Catenin (Uniprot ID P35222) (Homo sapiens)
Construct: 10 nM full-length beta-Catenin (Uniprot ID P35222)
Sequence (P35222 1-781): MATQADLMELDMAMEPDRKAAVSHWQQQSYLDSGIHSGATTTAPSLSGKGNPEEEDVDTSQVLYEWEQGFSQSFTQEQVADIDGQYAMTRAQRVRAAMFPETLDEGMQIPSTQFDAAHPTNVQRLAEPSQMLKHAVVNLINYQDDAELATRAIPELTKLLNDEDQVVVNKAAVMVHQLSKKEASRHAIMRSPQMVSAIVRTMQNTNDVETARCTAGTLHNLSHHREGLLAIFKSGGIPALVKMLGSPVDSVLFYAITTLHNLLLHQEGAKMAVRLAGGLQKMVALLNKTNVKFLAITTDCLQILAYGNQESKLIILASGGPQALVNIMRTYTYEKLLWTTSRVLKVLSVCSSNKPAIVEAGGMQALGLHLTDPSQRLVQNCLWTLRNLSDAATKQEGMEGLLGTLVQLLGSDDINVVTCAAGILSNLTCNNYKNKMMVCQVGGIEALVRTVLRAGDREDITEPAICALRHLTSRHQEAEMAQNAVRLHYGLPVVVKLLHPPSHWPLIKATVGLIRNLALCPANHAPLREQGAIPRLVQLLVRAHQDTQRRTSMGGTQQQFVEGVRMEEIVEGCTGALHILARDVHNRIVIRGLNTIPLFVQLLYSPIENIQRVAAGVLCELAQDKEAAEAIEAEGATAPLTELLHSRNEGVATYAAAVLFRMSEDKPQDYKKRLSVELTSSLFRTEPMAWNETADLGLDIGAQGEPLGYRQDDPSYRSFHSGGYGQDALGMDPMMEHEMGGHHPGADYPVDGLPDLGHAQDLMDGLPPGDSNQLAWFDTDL
Experiment: Fluorescence polarization IC50 (beta-catenin / 5FAM-TCF4 10-53 competition)
Assay type: binding
Conditions: read-out: beta-Catenin FP IC50; fluorescence polarization
# pIC50 per record follows
As a rule, pIC50 stands for the negative log10 of the concentration, concentration in M.

| COMPOUND | READOUT_KIND | OBSERVED_RESULT |
| --- | --- | --- |
| CC(=O)N1CCC[C@]12CC=CCCCC1(CCCC=CCCCOC(=O)N3CC[C@@](C(=O)N[C@@H](Cc4ccsc4)C(=O)N[C@@H](Cc4csc5ccccc45)C(=O)N[C@@H](CCC(N)=O)C(N)=O)(C3)NC(=O)[C@H](CC(C)C)NC(=O)[C@@H](Cc3cccc(S(=O)(=O)F)c3)NC(=O)[C@H](C)NC(=O)[C@H](C)NC(=O)[C@H](CN(CC(=O)O)CC(F)(F)F)NC(=O)[C@H](CC(=O)O)NC1=O)NC(=O)[C@H](CC(C)(C)C)NC(=O)[C@H](CC(=O)O)NC2=O (some centres unmarked) | pIC50 | 7.38 |

Continue with the next compound.
Qu. # query: pIC50 | item CC(=O)N1CCC[C@]12CC=CCCCC1(CCCC=CCCCOC(=O)N3CC[C@@](C(=O)N[C@@H](Cc4ccsc4)C(=O)N[C@@H](Cc4csc5ccccc45)C(=O)N[C@@H](CCC(N)=O)C(N)=O)(C3)NC(=O)[C@H](CC(C)C)NC(=O)[C@H](Cc3ccccc3)NC(=O)[C@H](C)NC(=O)[C@H](C)NC(=O)[C@H](CCC(=O)OCCSSc3ccccc3)NC(=O)[C@H](CC(=O)O)NC1=O)NC(=O)[C@H](CC(C)(C)C)NC(=O)[C@H](CC(=O)O)NC2=O (some centres unmarked) [I-1957] | system: full-length beta-Catenin (Uniprot ID P35222) (Homo sapiens)
Ans. 6.25

---

Biological target: full-length beta-Catenin (Uniprot ID P35222) (Homo sapiens)
Construct: 10 nM full-length beta-Catenin (Uniprot ID P35222)
Assay: Fluorescence polarization IC50 (beta-catenin / 5FAM-TCF4 10-53 competition)
Format: binding
Details: fluorescence polarization; read-out: beta-Catenin FP IC50
Listed here: items and their measured IC50.
Please respond with the number in nM and leave the unit unwritten.

| COMPOUND | OBSERVED_RESULT |
| --- | --- |
| CCCc1cn(CCCC[C@H](NC(=O)[C@H](Cc2csc3ccccc23)NC(=O)[C@H](Cc2ccsc2)NC(=O)[C@]23CCN(C2)C(=O)OCCCC=CCCCC2(CCCC=CC[C@]4(CCCN4C(C)=O)C(=O)N[C@@H](CC(=O)O)C(=O)N[C@@H](CC(C)(C)C)C(=O)N2)C(=O)N[C@@H](CC(=O)O)C(=O)N[C@@H](CC(=O)O)C(=O)N[C@@H](C)C(=O)N[C@@H](C)C(=O)N[C@@H](Cc2ccccc2)C(=O)N[C@@H](CC(C)C)C(=O)N3)C(N)=O)nn1 (some centres unmarked) [I-2375] | 5 |

Then there is this compound:
Qu. Quick one: IC50 of COc1ccccc1C[C@H](NC(=O)[C@]1(C)CCCCCCC=CCCCC2(CCCC=CC[C@]3(CCCN3C(C)=O)C(=O)N[C@@H](CC(=O)O)C(=O)N[C@@H](C)C(=O)N2)C(=O)N[C@@H](CC(=O)O)C(=O)N[C@@H](CCC(=O)O)C(=O)N[C@@H](C)C(=O)N[C@@H](C)C(=O)N[C@@H](Cc2ccccc2)C(=O)N[C@@H](CCC(N)=O)C(=O)N1)C(=O)N[C@@H](Cc1csc2ccccc12)C(=O)N[C@@H](CCC(N)=O)C(N)=O (some centres unmarked) [I-526] ?
Ans. 56

---

As shown below, each of these compounds has a reported IC50 value.
Target: beta-catenin/TCF4 engagement (Homo sapiens, UniProt P35222)
Construct: expressed in transfected cells; host or cells: HEK293
Sequence (P35222 1-781): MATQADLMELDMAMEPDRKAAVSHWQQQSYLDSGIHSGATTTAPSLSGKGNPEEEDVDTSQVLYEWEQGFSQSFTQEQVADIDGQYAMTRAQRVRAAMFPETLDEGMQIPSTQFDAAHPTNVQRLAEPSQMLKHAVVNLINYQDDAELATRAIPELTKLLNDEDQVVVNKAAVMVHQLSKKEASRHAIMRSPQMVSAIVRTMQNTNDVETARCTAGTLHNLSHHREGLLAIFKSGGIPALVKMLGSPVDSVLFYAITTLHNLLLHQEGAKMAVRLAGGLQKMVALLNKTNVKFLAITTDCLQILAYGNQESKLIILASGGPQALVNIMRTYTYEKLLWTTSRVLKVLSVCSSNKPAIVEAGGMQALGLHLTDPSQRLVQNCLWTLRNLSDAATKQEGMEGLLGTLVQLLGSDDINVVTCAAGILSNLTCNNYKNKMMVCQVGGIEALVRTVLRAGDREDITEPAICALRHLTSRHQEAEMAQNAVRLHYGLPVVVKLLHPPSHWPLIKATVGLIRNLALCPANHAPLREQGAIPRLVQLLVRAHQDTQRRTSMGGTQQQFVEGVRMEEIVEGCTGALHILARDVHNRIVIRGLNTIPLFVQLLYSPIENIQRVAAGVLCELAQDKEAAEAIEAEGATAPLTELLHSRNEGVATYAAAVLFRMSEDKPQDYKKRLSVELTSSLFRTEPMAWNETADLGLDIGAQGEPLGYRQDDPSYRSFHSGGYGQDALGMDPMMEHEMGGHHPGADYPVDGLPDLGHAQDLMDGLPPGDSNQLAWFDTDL
Experiment: Nano-BRET target engagement assay (B-cat-Halo & TCF4-Luc in HEK293 cells)
Assay type: cell-based
Settings: read-out: NanoBRET Abs IC50
Give the quantity in µM, number only.

Here are 3 compounds together with their reported answers.
| COMPOUND | SYSTEM | OBSERVED_RESULT |
| --- | --- | --- |
| CC(=O)N1CCC[C@]12CC=CCCCC1(CCCC=CCCCOC(=O)N3CC[C@@](C(=O)N[C@@H](Cc4ccccc4Cl)C(=O)N[C@@H](Cc4csc5ccccc45)C(=O)N[C@@H](CCC(N)=O)C(N)=O)(C3)NC(=O)[C@H](CC(C)C)NC(=O)[C@H](Cc3ccccc3)NC(=O)[C@H](C)NC(=O)[C@H](C)NC(=O)[C@H](Cc3ccc(F)c(C(=O)O)c3)NC(=O)[C@H](CC(=O)O)NC1=O)NC(=O)[C@H](CC(C)(C)C)NC(=O)[C@H](CC(=O)O)NC2=O (stereo partly drawn) [I-2204] | beta-catenin/TCF4 engagement (Homo sapiens, UniProt P35222) | 3.3 |
| CC(=O)N1CCC[C@]12CC=CCCCC1(CCCC=CCCCOC(=O)N3CC[C@@](C(=O)N[C@@H](Cc4ccccc4Cl)C(=O)N[C@@H](Cc4csc5ccccc45)C(=O)N[C@@H](CCC(N)=O)C(N)=O)(C3)NC(=O)[C@H](CC(C)C)NC(=O)[C@H](Cc3ccccc3)NC(=O)[C@H](C)NC(=O)[C@H](C)NC(=O)[C@H](Cc3ccc(F)c(C(=O)O)c3)NC(=O)[C@H](CC(=O)O)NC1=O)NC(=O)[C@H](CC(C)(C)C)NC(=O)[C@H](CC(=O)O)NC2=O (stereo partly drawn) [I-2203] | beta-catenin/TCF4 engagement (Homo sapiens, UniProt P35222) | 2.9 |
| CC(=O)N1CCC[C@]12CC=CCCCC1(CCCC=CCCCCCC[C@@](C)(C(=O)N[C@@H](Cc3ccccc3Cl)C(=O)N[C@@H](Cc3csc4ccccc34)C(=O)N[C@H](C(N)=O)[C@@H](C)O)NC(=O)[C@H]([C@@H](C)O)NC(=O)[C@H](Cc3ccccc3)NC(=O)[C@H](C)NC(=O)[C@H](C)NC(=O)[C@H](CCC(=O)O)NC(=O)[C@H](CC(=O)O)NC1=O)NC(=O)[C@H](CC(C)(C)C)NC(=O)[C@H](CC(=O)O)NC2=O (stereo partly drawn) | beta-catenin/TCF4 engagement (Homo sapiens, UniProt P35222) | 11.4 |

Qu. What is its IC50 for beta-catenin/TCF4 engagement (Homo sapiens, UniProt P35222)? Entry: CC(=O)N1CCC[C@]12CC=CCCCC1(CCCC=CCCCOC(=O)N3CC[C@@](C(=O)N[C@@H](Cc4ccccc4Cl)C(=O)N[C@@H](Cc4csc5ccccc45)C(=O)N[C@@H](CO)C(N)=O)(C3)NC(=O)[C@H](C(C)C)NC(=O)[C@H](Cc3ccccc3)NC(=O)[C@H](C)NC(=O)[C@H](C)NC(=O)[C@H](Cc3cccc(C(=O)O)c3)NC(=O)[C@H](CC(=O)O)NC1=O)NC(=O)[C@H](CC(C)(C)C)NC(=O)[C@H](CC(=O)O)NC2=O (stereo partly drawn)
Ans. 3.8

Qu. Now try CC(=O)N1CCC[C@]12CC=CCCCC1(CCCC=CCCCOC(=O)N3CC[C@@](C(=O)N[C@@H](Cc4ccsc4)C(=O)N[C@@H](Cc4csc5ccccc45)C(=O)N[C@@H](CC(C)(C)C)C(N)=O)(C3)NC(=O)[C@H](CC(C)C)NC(=O)[C@H](Cc3ccccc3)NC(=O)[C@H](C)NC(=O)C(C)(C)NC(=O)[C@H](Cc3cccc(C(=O)O)c3)NC(=O)[C@H](CC(=O)O)NC1=O)NC(=O)[C@H](CC(C)(C)C)NC(=O)[C@H](CC(=O)O)NC2=O (stereo partly drawn) .
Ans. 8.8

Qu. Same again, this time with CC(=O)NCCCC[C@@H]1NC(=O)[C@H](Cc2ccccc2)NC(=O)[C@H](C)NC(=O)C(C)(C)NC(=O)[C@H](Cc2cccc(C(=O)O)c2)NC(=O)[C@H](CC(=O)O)NC(=O)C2(CCCC=CCCCOC(=O)N3CC[C@@](C(=O)N[C@@H](Cc4ccccc4C(F)(F)F)C(=O)N[C@@H](Cc4csc5ccccc45)C(=O)N[C@@H](C)C(=O)N[C@@H](C)C(N)=O)(C3)NC1=O)CCCC=CC[C@]1(CCCN1C(C)=O)C(=O)N[C@@H](CC(=O)O)C(=O)N[C@@H](CC(C)(C)C)C(=O)N2 (stereo partly drawn)
Ans. 4.7

// provenance: patent US20240116985A1
